Tested on: HNSC
Experiment: growth inhibition (% activity, log2 RLU normalised to DMSO / staurosporine); higher = more growth inhibition
Settings: 33 µM
Items are presented alongside their recorded growth inhibition.
Lab book: enter the figure in %, no units written.

Sample answers from the record:
molecule=CN(CCOc1ccc(NS(C)(=O)=O)cc1)CCc1ccc(NS(C)(=O)=O)cc1 metric_name="growth inhibition" result_value=-6.33
molecule=CO[C@H]1O[C@@H]2O[C@@]3(C)CC[C@H]4[C@H](C)CC[C@@H]([C@H]1C)[C@@]24OO3 metric_name="growth inhibition" result_value=3.37
molecule=O=C(NC[C@H]1CN(c2ccc(N3CCOCC3=O)cc2)C(=O)O1)c1ccc(Cl)s1 metric_name="growth inhibition" result_value=0.606
molecule="CC(C)NCC(O)c1cc(O)cc(O)c1 (stereo not given)" metric_name="growth inhibition" result_value=27.3
molecule=CC[C@H](C)C[C@H](C)CCCCCCCCC(=O)N[C@H]1C[C@@H](O)[C@@H](NCCN)NC(=O)[C@@H]2[C@@H](O)CCN2C(=O)[C@H]([C@H](O)CCN)NC(=O)[C@H]([C@H](O)[C@@H](O)c2ccc(O)cc2)NC(=O)[C@@H]2C[C@@H](O)CN2C(=O)[C@H]([C@@H](C)O)NC1=O metric_name="growth inhibition" result_value=7.21

// field: growth inhibition; key: COc1ccc(CN2CCN(C(c3ccc(F)cc3)c3ccc(F)cc3)CC2)c(OC)c1OC ; value = 7.5

Lab book: growth inhibition of COc1cc([C@@H]2c3cc4c(cc3[C@@H](O[C@@H]3O[C@@H]5CO[C@@H](C)O[C@H]5[C@H](O)[C@H]3O)[C@H]3COC(=O)[C@H]23)OCO4)cc(OC)c1O noted as 61.4
